endpoint: melting point

Examples from the recorded data:
Nc1nc2cc3c(cc2[n+]([O-])n1)CCO3 ... 293 to 296 °C
COCCN(C)CCNc1nc2cc3c(cc2[n+]([O-])n1)CCC3 ... 107 to 110 °C
Nc1n[n+]([O-])c2cc3c(cc2[n+]1[O-])CCC3 ... 190 to 195 °C
CCN1Cc2cc3nc(N)n[n+]([O-])c3cc2C1 ... 218 °C
Nc1nc2cc3c(cc2[n+]([O-])n1)CCCC3 ... 270 to 274 °C

Incoming: Which melting point value belongs to `CCc1n[n+]([O-])c2cc3c(cc2[n+]1[O-])CCC3` ?
Outgoing: 140 to 142 °C

Incoming: Which melting point value belongs to `[O-][n+]1nc(I)nc2cc3c(cc21)CCO3` ?
Outgoing: 192 to 194 °C

Incoming: Which melting point value belongs to `[O-][n+]1nc(NCCCN2CCOCC2)nc2cc3c(cc21)OCCC3` ?
Outgoing: 151 to 152 °C

Incoming: Which melting point value belongs to `CN(C)CCNc1nc2cc3c(cc2[n+]([O-])n1)OCO3` ?
Outgoing: 192 to 194 °C

Incoming: Which melting point value belongs to COC1CCCN(CCNc2nc3cc4c(cc3[n+]([O-])n2)CCC4)C1 (stereo not shown) ?
Outgoing: 123 to 124 °C

----------
Where a name gives a salt, the structure may show the parent alone.
endpoint: melting point

Examples from the recorded data:
Nc1nc2ccc3c(c2[n+]([O-])n1)CCC3 ... 270 to 274 °C
CCc1nc2cc3c(cc2[n+]([O-])n1)CC(CN1CCOCC1)C3 (stereo not drawn) ... 111 to 112 °C
CN1CCc2ccc3nc(Cl)n[n+]([O-])c3c2C1 ... 200 to 205 °C
[O-][n+]1nc(NCCN2CCCOCC2)nc2cc3c(cc21)CCC3 ... 119 to 120 °C

Incoming: Which melting point value belongs to `CN(C)CCNc1nc2cc3c(cc2[n+]([O-])n1)OCC3` ?
Outgoing: 153 to 157 °C

Incoming: Which melting point value belongs to `Nc1nc2cc3c(cc2[n+]([O-])n1)CCCCC3` ?
Outgoing: 261 to 265 °C

Incoming: Which melting point value belongs to `CN1CCc2cc3c(cc2C1)nc(Cl)n[n+]3[O-]` ?
Outgoing: 179 °C (dec.)

Incoming: Which melting point value belongs to `COC1CN(CCNc2nc3cc4c(cc3[n+]([O-])n2)CCC4)C1` ?
Outgoing: 139 to 141 °C

Incoming: Which melting point value belongs to CCc1n[n+]([O-])c2cc3c(cc2[n+]1[O-])CC(CCN1CCOCC1)C3 (stereo not drawn) (as salt: hydrochloride) ?
Outgoing: 131 to 133 °C

----------
Reported values of melting point for individual entries

CC1Cc2cc3c(cc2C1)[n+]([O-])c(NCCN(C)C)n[n+]3[O-] (stereo not drawn) ... 149 to 151 °C
CCCN(CCC)CCNc1nc2ccc3c(c2[n+]([O-])n1)CCC3 [Compound 10] ... 148 to 151 °C
[O-][n+]1nc(Cl)nc2cc3c(cc21)CCO3 ... 203 to 205 °C
CCc1nc2cc3c(cc2[n+]([O-])n1)CC(CCO)C3 (stereo not drawn) ... 96 to 99 °C

Incoming: Which melting point value belongs to CC1Cc2cc3nc(CCCN4CCOCC4)n[n+]([O-])c3cc2C1 (stereo not drawn) ?
Outgoing: 70 to 71 °C

Incoming: Which melting point value belongs to `[O-][n+]1nc(NCCCCN2CCOCC2)nc2cc3c(cc21)CCC3` ?
Outgoing: 151 to 152 °C

Incoming: Which melting point value belongs to `CCNc1n[n+]([O-])c2cc3c(cc2[n+]1[O-])CN(C)CC3` ?
Outgoing: 120 to 124 °C

Incoming: Which melting point value belongs to `CN(C)CCNc1nc2cc3c(cc2[n+]([O-])n1)CCCCC3` ?
Outgoing: 149 to 152 °C

Incoming: Which melting point value belongs to `CN(C)CCNc1n[n+]([O-])c2cc3c(cc2[n+]1[O-])CCC3` ?
Outgoing: 150 to 153 °C

----------
Reported values of IC50 for individual entries
- Test system: human colon carcinoma HT29
- assay.info: Proliferation assay (IC50) under aerobic and hypoxic conditions, HT29
- Assay type: cell-based
- conditions: Homo sapiens, HT-29, hypoxic (anaerobic chamber, <0.001% O2), 4 h drug exposure, then 6 days growth, sulforhodamine B, read-out: IC50 (μM) hypoxic
The reply should read as a number followed by its unit.

CCNc1n[n+]([O-])c2cc3c(cc2[n+]1[O-])CN(C)CC3 [Compound 259] ... 2.6 µM
[O-][n+]1nc(NCCCN2CCOCC2)[n+]([O-])c2cc3c(cc21)CCO3 [Compound 212] ... 48.6 µM
N#CC1CCN(CCCNc2n[n+]([O-])c3cc4c(cc3[n+]2[O-])CCC4)C1 (stereo not drawn) [Compound 57] ... 22 µM
CCc1n[n+]([O-])c2cc3c(cc2[n+]1[O-])CN(C)CC3 [Compound 261] ... 13 µM
CN(C)CCNc1n[n+]([O-])c2cc3c(cc2[n+]1[O-])OCO3 [Compound 224] ... 13 µM

Incoming: Which IC50 value belongs to [O-][n+]1nc(NCCO)[n+]([O-])c2cc3c(cc21)CCC3 [Compound 25] ?
Outgoing: 47 µM

Incoming: Which IC50 value belongs to [O-][n+]1nc(NCCCCN2CCOCC2)[n+]([O-])c2cc3c(cc21)CCC3 [Compound 63] ?
Outgoing: 14.2 µM

Incoming: Which IC50 value belongs to Nc1n[n+]([O-])c2cc3c(cc2[n+]1[O-])OCC3 [Compound 205] ?
Outgoing: 117 µM

Incoming: Which IC50 value belongs to [O-][n+]1nc(NCCCN2CCOCC2)[n+]([O-])c2cc3c(cc21)OCCC3 [Compound 244] ?
Outgoing: 11 µM

Incoming: Which IC50 value belongs to CCc1n[n+]([O-])c2cc3c(cc2[n+]1[O-])CCC3 [Compound 68] ?
Outgoing: 48 µM

Incoming: Which IC50 value belongs to [O-][n+]1nc(NCCCN2CCOCC2)[n+]([O-])c2cc3c(cc21)CCC3 [Compound 61] ?
Outgoing: 21 µM

Incoming: Which IC50 value belongs to CCN(CC)CCNc1n[n+]([O-])c2cc3c(cc2[n+]1[O-])CCC3 [Compound 27] ?
Outgoing: 4.2 µM

Incoming: Which IC50 value belongs to CN(C)CCCc1n[n+]([O-])c2cc3c(cc2[n+]1[O-])CCC3 [Compound 79] ?
Outgoing: 0.54 µM

Incoming: Which IC50 value belongs to CN(C)CCNc1n[n+]([O-])c2cc3c(cc2[n+]1[O-])CCC3 [Compound 23] ?
Outgoing: 2.3 µM

Incoming: Which IC50 value belongs to Nc1n[n+]([O-])c2cc3c(cc2[n+]1[O-])CCC3 [Compound 20] ?
Outgoing: 15 µM

Incoming: Which IC50 value belongs to CCc1n[n+]([O-])c2cc3c(cc2[n+]1[O-])CC(CO)C3 (stereo not drawn) [Compound 136] ?
Outgoing: 17.1 µM

Incoming: Which IC50 value belongs to COCCCN(C)CCNc1n[n+]([O-])c2cc3c(cc2[n+]1[O-])CCC3 [Compound 33] ?
Outgoing: 6.3 µM

Incoming: Which IC50 value belongs to CC1Cc2cc3c(cc2C1)[n+]([O-])c(CCCN1CCOCC1)n[n+]3[O-] (stereo not drawn) [Compound 104] ?
Outgoing: 2.9 µM

----------
endpoint: melting point

Examples from the recorded data:
CCN(CC)CCNc1nc2ccc3c(c2[n+]([O-])n1)CCC3 ... 126 to 130 °C
O=CCCc1nc2cc3c(cc2[n+]([O-])n1)CCO3 ... 140 to 142 °C
CC1Cc2cc3nc(I)n[n+]([O-])c3cc2C1 (stereo not shown) ... 140 to 142 °C

Shifting focus to the compound that follows.
Incoming: Which melting point value belongs to `[O-][n+]1nc(NCCCN2CCOCC2)[n+]([O-])c2cc3c(cc21)CCC3` ?
Outgoing: 158 to 160 °C

----------
endpoint: melting point

CN(C)CCNc1n[n+]([O-])c2cc3c(cc2[n+]1[O-])OCC3 ... 186 to 189 °C
CCc1n[n+]([O-])c2cc3c(cc2[n+]1[O-])CC(CO)C3 (stereo not drawn) ... 157 to 158 °C
Nc1nc2ccc3c(c2[n+]([O-])n1)CCCC3 ... 271 °C (dec.)

Incoming: Which melting point value belongs to `CCNc1nc2cc3c(cc2[n+]([O-])n1)CCN(C)C3` ?
Outgoing: 193 to 196 °C

Incoming: Which melting point value belongs to `Nc1nc2cc3c(cc2[n+]([O-])n1)OCC3` ?
Outgoing: 241 to 246 °C

Incoming: Which melting point value belongs to `CCc1nc2cc3c(cc2[n+]([O-])n1)CCN(C)C3` ?
Outgoing: 129 to 131 °C

Incoming: Which melting point value belongs to Nc1nc2cc3c(cc2[n+]([O-])n1)CC(CO)C3 (stereo not drawn) ?
Outgoing: 255 to 257 °C

Incoming: Which melting point value belongs to `[O-][n+]1nc(NCCCN2CCOCC2)nc2cc3c(cc21)CCCC3` ?
Outgoing: 115 to 116 °C

Incoming: Which melting point value belongs to CC1Cc2cc3nc(NCCN(C)C)n[n+]([O-])c3cc2C1 (stereo not drawn) ?
Outgoing: 119 to 121 °C
